Origin of the recorded values: patent US20250222003A1

Assay: Pharmacokinetics of Compound A, phase I dose-escalation part (plasma)
Assay type: in vivo, human
Settings: human, plasma, oral, C1D8; read-out: highest value of AUC(0-tau),ss of the subjects in which vomiting could be suppressed by the 5-HT3 receptor antagonist
Procedure: In the treatment phase, Compound A (an oral formulation containing Compound A) is administered to the subjects of administration in one cycle of 28 days. […] In the dose-escalation part, blood was collected from the subjects of administration according to the schedule shown in Table 5, and the pharmacokinetics of Compound A was evaluated. […]
measure: AUC (ng·h/mL)
The reply should contain only the number, in ng·h/mL.

Enquiry: Name the reported AUC value associated with the compound `C=CCN1CC(=O)N2[C@@H](Cc3ccc(O)cc3F)C(=O)N(Cc3cccc(N4CC(N5CCN(CC)CC5)C4)n3)C[C@@H]2N1C(=O)NCc1ccccc1`
Return: 7640
